Test system: Hs-578T
assay-name: NCI tumour cell line growth inhibition, 48 h
The source made the active and inactive calls. No stated cut-off is given here; in the data, active = GI50 up to about 1.1 µM and inactive = higher.
quantity-measured: GI50

The examples below pair each entry with its known result.
{"molecule": "COP(=O)(OC)[C@H](O)[C@H]1C[C@@H]1c1ccccc1", "GI50": "18.9 µM (inactive)"}
{"molecule": "CCc1nc2ccc(C(F)(F)F)cc2[nH]c1=O", "GI50": "> 100 µM (inactive)"}
{"molecule": "CCCCCC#CCOC(=O)C(=[N+]=[N-])P(=O)(c1ccccc1)c1ccccc1", "GI50": "> 10 µM (inactive)"}
{"molecule": "CC(C)Cn1cnc2c(NCC(C)O)nc3ccccc3c21 (stereo unspecified)", "GI50": "45.7 µM (inactive)"}
{"molecule": "COc1ccccc1C1=C2C(=O)N(C)C(c3ccccc3OC)=C2C(=O)N1C", "GI50": "43.8 µM (inactive)"}
{"molecule": "Cc1ccc(S(=O)(=O)NN=C2C(C)CC(C(C)(C)C)CC2C)cc1 (stereo unspecified)", "GI50": "37.2 µM (inactive)"}
{"molecule": "O=C1Cc2c(-c3ccccc3)cc(-c3cccc(Cl)c3)nc2-c2ccccc2N1", "GI50": "2.09 µM (inactive)"}
{"molecule": "CNC(=O)OCc1nc(SSC(C)(C)C)n(C)c1COC(=O)NC", "GI50": "2.22 µM (inactive)"}
{"molecule": "O=C(NC(Cc1c[nH]c2ccccc12)C(=O)O)/C(=C/c1ccccc1)NC(=O)c1ccccc1 (stereo unspecified)", "GI50": "28.5 µM (inactive)"}
{"molecule": "COc1ccc(Nc2nn3c(=O)c4c(C)c(C)sc4nc3s2)cc1", "GI50": "79.1 µM (inactive)"}

For each of the molecules below, state GI50.
1. O=P(O)(O)OP(=O)(O)O
2. CC1(C)O[C@@H]2C[C@H]3[C@@H]4C[C@H](F)C5=CC(=O)C=C[C@]5(C)[C@@]4(F)[C@@H](O)C[C@]3(C)[C@]2(C(=O)CO)O1 [FLUOCINOLONE ACETONIDE]
3. CCOC(=O)C(N)CSC(=O)NC (stereo unspecified)
4. O=C(O)c1cc2ccccc2c(O)c1O
5. COc1ccc(C2SC(=N)Nc3c2c(C)nn3C(=O)c2ccc(Cl)cc2)cc1 (stereo unspecified)
6. CN(NC(=O)CCCl)C1=NCCCCN1
7. CC(C)(C)NCC(O)COc1cccc2[nH]c(C#N)cc12 (stereo unspecified)
8. Clc1ccc(-c2nc3cc(C45CC6CC(CC(C6)C4)C5)ccc3[nH]2)cc1

Result:
["> 100 µM (inactive)", "> 100 µM (inactive)", "204 µM (inactive)", "8.13 µM (inactive)", "> 10 µM (inactive)", "> 100 µM (inactive)", "> 100 µM (inactive)", "62.7 µM (inactive)"]

Please report GI50 for every entry that follows.
1. CCCc1cc(O)c2c(C)c3[nH]c4ccc(Cl)cc4c3c(C)c2n1
2. CC[C@@]1(O)C(=O)OCc2c1cc1n(c2=O)Cc2c-1nc1ccccc1c2/C=N\NC(=O)C[n+]1ccccc1
3. Cc1cc(O)c(O)c(Oc2cc(C)cc(O)c2O)c1

Result:
1: 9.57 µM (inactive); 2: > 64.1 µM (inactive); 3: 48.4 µM (inactive)
